Can you tell me pIC50 for the items I'm about to list?
# Tested on: Phospho-PRAS40(T246)
# assay summary: Luminex multiplex assay, Phospho-PRAS40(T246)
# Type: cell-based
# experimental conditions: PC3 cell line; read-out: Luminex PRAS40
Answers are plain numbers, as −log10 of the molar value.

Look over these answered cases.
molecule: COC1CCC(N2C(=O)CNc3ncc(-c4ccc(-c5nnc[nH]5)nc4C)nc32)C1 (centres unmarked) [C-59]
readout value: 7.00

molecule: CO[C@H]1CC[C@@H](N2C(=O)CNc3ncc(-c4ccc(-c5nnc[nH]5)nc4C)nc32)C1 [C-57]
readout value: 6.91

molecule: CO[C@H]1CC[C@@H](CN2C(=O)CNc3ncc(-c4ccc(-c5nc[nH]n5)nc4C)nc32)CC1 [C-66]
readout value: 7.92

Batch lookup, pIC50 per entry.
1. COC1CCC(CN2C(=O)CNc3ncc(-c4cnc(C(N)=O)cc4C)nc32)CC1 (centres unmarked) [C-95]
2. COC1CCC(N2CC(=O)Nc3ncc(-c4ccc(-c5nc[nH]n5)c(F)c4C)nc32)CC1 (centres unmarked) [C-108]
3. O=C1CNc2ncc(-c3cnc4[nH]ccc4c3)nc2N1CCC1CCOCC1 [C-61]
4. Cc1nc(-c2nnc[nH]2)ccc1-c1cnc2c(n1)N(Cc1cccc(C#N)c1)C(=O)CN2 [C-92]
5. Cc1cc(-c2nnc[nH]2)ccc1-c1cnc2c(n1)N(Cc1ccccc1)C(=O)CN2 [C-31]
6. O=C1CN(CCC2CCOCC2)c2nc(-c3ccc(-c4nnc[nH]4)c(F)c3)cnc2N1 [C-18]
7. CO[C@H]1CC[C@H](N2CC(=O)Nc3ncc(-c4ccc(C(C)(C)O)nc4)nc32)CC1 [C-8]
8. Cc1cc(-c2cnc3c(n2)N(CC2CCOCC2)C(=O)CN3)cc2[nH]c(=O)[nH]c12 [C-38]

[6.51, 7.51, 7.68, 8.05, 7.85, 7.57, 6.16, 5.49]

Batch lookup, pIC50 per entry.
1. COC1CCC(CN2C(=O)CNc3ncc(-c4cnc(C(N)=O)cc4C)nc32)CC1 (centres unmarked) [C-89]
2. COC1CCC(N2C(=O)CNc3ncc(-c4ccc(C(C)(C)O)nc4)nc32)C1 (centres unmarked) [C-81]

1: 5.99; 2: 6.07
